biological target: cystathionine-γ-lyase (CSE) (Homo sapiens, UniProt P32929); construct: gene CTH; N-terminal GST fusion (pGEX-4T3), expressed in E. coli BL21(DE3) Codon Plus; eluted with reduced GSH, no tag cleavage described; test: methylene blue H2S assay, concentration-response; type: biochemical
Sequence (P32929 whole entry, the tested form may be a part): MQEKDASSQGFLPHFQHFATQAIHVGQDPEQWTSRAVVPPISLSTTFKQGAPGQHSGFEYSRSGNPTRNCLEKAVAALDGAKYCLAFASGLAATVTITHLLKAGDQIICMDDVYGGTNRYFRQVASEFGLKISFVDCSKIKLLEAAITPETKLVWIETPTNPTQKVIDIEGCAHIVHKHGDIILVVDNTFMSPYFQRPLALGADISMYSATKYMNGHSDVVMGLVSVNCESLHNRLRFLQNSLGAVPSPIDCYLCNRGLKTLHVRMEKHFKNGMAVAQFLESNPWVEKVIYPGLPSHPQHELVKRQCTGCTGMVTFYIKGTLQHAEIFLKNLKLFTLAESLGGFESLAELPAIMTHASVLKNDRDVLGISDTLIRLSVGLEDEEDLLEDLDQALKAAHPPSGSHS
pIC50: −log10 of the molar value.
Each entry below lists one item and its recorded pIC50 value.
observable: pIC50

[[record]]
compound = "C#CCNC(=O)[C@@H]1CSC(=O)N1 [2a, compound 2a]"
assayed_target = "cystathionine-γ-lyase (CSE) (Homo sapiens, UniProt P32929)"
test_result = 5.20

[[record]]
compound = "C#CCC(N)C(=O)O (centres unmarked) [PAG]"
assayed_target = "cystathionine-γ-lyase (CSE) (Homo sapiens, UniProt P32929)"
test_result = 4.37

